List of AUC values.
- PROTOCOL_DETAILS: Plasma pharmacokinetics (LC-MS/MS, noncompartmental) in phase I patients
- Type: in vivo, human
- CONDITIONS: human, plasma, oral, 1750 mg b.i.d., day 1; dose 1750 b.i.d.; N=4; mean (SD); read-out: AUC0−τ
Reply numerically in ng·h/mL, unit not repeated.

mol=CSCC[C@H](NC(=O)c1cc(NC[C@@H]2C[C@H](S)CN2)ccc1CCc1ccc(F)cc1)C(=O)O quantity_measured=AUC unit_descriptor=ng·h/mL data_value=751

Then this molecule:
# input May I ask what AUC has been recorded for CSCC[C@H](NC(=O)c1cc(NC[C@@H]2C[C@H](S)CN2)ccc1CCc1ccc(F)cc1)C(=O)OC(C)C ?
# output 1690

###

- PROTOCOL_DETAILS: Plasma pharmacokinetics (LC-MS/MS, noncompartmental) in phase I patients
- Format: in vivo, human
- CONDITIONS: human, plasma, oral, 1000 mg once daily, day 1; dose 1000 (once daily); N=3; mean (SD); read-out: AUC0−τ
List of AUC values.
Reply numerically in ng·h/mL, unit not repeated.

molecule="CSCC[C@H](NC(=O)c1cc(NC[C@@H]2C[C@H](S)CN2)ccc1CCc1ccc(F)cc1)C(=O)O [AZD3409 acid]" quantity_measured=AUC unit_descriptor=ng·h/mL data_value=512

Then this molecule:
# input May I ask what AUC has been recorded for CSCC[C@H](NC(=O)c1cc(NC[C@@H]2C[C@H](S)CN2)ccc1CCc1ccc(F)cc1)C(=O)OC(C)C [AZD3409 ester] ?
# output 1540

###

List of Cmax values.
- PROTOCOL_DETAILS: Plasma pharmacokinetics (LC-MS/MS, noncompartmental) in phase I patients
- Format: in vivo, human
- CONDITIONS: human, plasma, oral, 500 mg once daily, day 1; dose 500 (once daily); N=3; mean (SD)
Reply numerically in ng/mL, unit not repeated.

mol=CSCC[C@H](NC(=O)c1cc(NC[C@@H]2C[C@H](S)CN2)ccc1CCc1ccc(F)cc1)C(=O)OC(C)C unit_descriptor=ng/mL data_value=82.1

Then this molecule:
# input May I ask what Cmax has been recorded for CSCC[C@H](NC(=O)c1cc(NC[C@@H]2C[C@H](S)CN2)ccc1CCc1ccc(F)cc1)C(=O)O ?
# output 33.6

###

- PROTOCOL_DETAILS: Plasma pharmacokinetics (LC-MS/MS, noncompartmental) in phase I patients
- Assay type: in vivo, human
- CONDITIONS: human, plasma, oral, 1000 mg once daily, day 22; dose 1000 (once daily); N=3; mean (SD)
List of Cmax values.
# answer = value followed by unit

mol=CSCC[C@H](NC(=O)c1cc(NC[C@@H]2C[C@H](S)CN2)ccc1CCc1ccc(F)cc1)C(=O)O quantity_measured=Cmax data_value="106 ng/mL"

Then this compound:
# input May I ask what Cmax has been recorded for CSCC[C@H](NC(=O)c1cc(NC[C@@H]2C[C@H](S)CN2)ccc1CCc1ccc(F)cc1)C(=O)OC(C)C ?
# output 296 ng/mL

###

- PROTOCOL_DETAILS: Plasma pharmacokinetics (LC-MS/MS, noncompartmental) in phase I patients
- Type: in vivo, human
- CONDITIONS: human, plasma, oral, 500 mg once daily, day 22; dose 500 (once daily); N=2; absolute values
QUANTITY_MEASURED: Cmax

# input May I ask what Cmax has been recorded for CSCC[C@H](NC(=O)c1cc(NC[C@@H]2C[C@H](S)CN2)ccc1CCc1ccc(F)cc1)C(=O)OC(C)C [AZD3409 ester] ?
# output 229 to 257 ng/mL

# input May I ask what Cmax has been recorded for CSCC[C@H](NC(=O)c1cc(NC[C@@H]2C[C@H](S)CN2)ccc1CCc1ccc(F)cc1)C(=O)O [AZD3409 acid] ?
# output 95.9 to 111 ng/mL

Values compiled from paper PMC2441954.
